Target: hNOX enzymes
Assay: ROS production measurement on hNOX membranes (Amplex Red fluorescence assay, assay 1)
Settings: membranes from CHO or HEK cells overexpressing hNox enzymes; Nox isoform not stated; non linear regression; read-out: Nox inhibitory constant Ki
Record form. Attribute: Ki. Fill in for each entry.
Give bare numbers, in nM.

Would you mind listing Ki for each of the following compounds?
1. COc1cncc(-c2cc(Cl)c3[nH]c(-c4ccc(N5CCOCC5)nc4)cc3c2)c1 [Example 59]
2. COc1cncc(-c2ccc3c(c2)cc(-c2ccnc(C)c2)n3C(C)C)c1 [Example 111]
3. Cc1cc(-c2cc3cc(-c4cncc(OCC5CC5)c4)ccc3[nH]2)ccn1 [Example 81]
4. Cc1cc(-c2cc3cc(-c4ccc5[nH]c(C)nc5c4)ccc3[nH]2)ccn1 [Example 12]
5. Fc1ccc2nccc(-c3cc4cc(-c5ccc(N6CCOCC6)nc5)[nH]c4cc3Cl)c2c1 [Example 90]
6. c1ccc2c(-c3ccc4[nH]c(-c5ccncc5)cc4c3)ccnc2c1 [Example 101]
7. COc1cncc(-c2ccc3[nH]c(-c4ccnc(N5CCC5)c4)cc3c2)c1 [Example 13]
8. COc1ccc2c(-c3cc4cc(-c5ccc(N6CCOCC6)nc5)[nH]c4cc3Cl)cccc2n1 [Example 92]

[552, 533, 289, 590, 205, 300, 315, 770]

###

Target: hNOX enzymes
Assay: ROS production measurement on hNOX membranes (Amplex Red fluorescence assay, assay 1)
Conditions: membranes from CHO or HEK cells overexpressing hNox enzymes; Nox isoform not stated; non linear regression; read-out: Nox inhibitory constant Ki
Procedure: Reactive oxygen species (ROS) production generated by hNOX enzymes was measured by fluorescence in both cellular and membrane-based assays using the Amplex® Red reagent. […] Membranes from CHO or HEK cells overexpressing hNox enzymes were prepared as previously described (Palicz et al., 2001, J. Biol. Chem, 76, 3090). […] Protein concentration was determined with Bradford reagent. […] FLUOstar OPTIMA microplate reader was supplied by BMG Labtech (Germany). […]
Please assign False whenever Ki is at or above 300 nM, and True whenever it is below.

A selection of reference data follows.
                                        smi  label_value
0  COc1cc(-c2ccc3[nH]c(-c4ccnc(C)c4)cc3c2)ccn1        False
1  COc1cncc(-c2cc3cc(-c4cnc5c(c4)OCCN5C)[nH]c3cc2Cl)c1         True
2  Cc1cc(-c2cc3cc(-c4cncc(F)c4)ccc3[nH]2)ccn1        False
3  COc1cncc(-c2cc3cc(-c4ccc(=O)n(C)c4)[nH]c3cc2Cl)c1         True

Record COc1cncc(-c2cc3cc(-c4ccnc(C)c4)[nH]c3cc2C)c1 : is its Ki strictly below 300 nM?
False

Record Cc1cc(-c2cc3cc(-c4ccnc(N)c4)ccc3[nH]2)ccn1 : is its Ki strictly below 300 nM?
False

Record Cc1cc(-c2ccc3[nH]c(-c4ccc(N5CCOCC5)nc4)cc3c2)ccn1 : is its Ki strictly below 300 nM?
True

Record COc1cncc(-c2cc3cc(-c4ccc(N5CCOCC5)nc4)n(C)c3cc2Cl)c1 : is its Ki strictly below 300 nM?
True

Record COc1cncc(-c2ccc3[nH]c(-c4ccnc(C)c4)cc3c2Cl)c1 : is its Ki strictly below 300 nM?
True

Record COc1cncc(-c2ccc3[nH]c(-c4ccc(C5COC5)nc4)cc3c2)c1 : is its Ki strictly below 300 nM?
True

Record COc1cc(-c2ccc3[nH]c(-c4ccnc(C)c4)cc3c2)cnc1OCc1ccccc1 : is its Ki strictly below 300 nM?
False

Record Cc1cc(-c2ccc3[nH]c(-c4ccc(N(C)C)nc4)cc3c2)ccn1 : is its Ki strictly below 300 nM?
True

Record COc1cncc(-c2cc3cc(-c4ccc(N5CCC56COC6)nc4)[nH]c3cc2Cl)c1 : is its Ki strictly below 300 nM?
True

Record COc1cncc(-c2cc3cc(-c4ccnc(N5CCC56COC6)c4)[nH]c3cc2Cl)c1 : is its Ki strictly below 300 nM?
True

Record Cc1cc(-c2cc3cc(-c4ccnc(N5CCC56COC6)c4)[nH]c3cc2Cl)ccn1 : is its Ki strictly below 300 nM?
True

Record COc1cncc(-c2ccc3[nH]c(-c4ccnc(C)n4)cc3c2)c1 : is its Ki strictly below 300 nM?
False

Record COc1cncc(-c2ccc3[nH]c(-c4csc(C)n4)cc3c2)c1 : is its Ki strictly below 300 nM?
False

Record CN(C)c1cc(-c2cc3cc(-c4ccnc5ccc(F)cc45)ccc3[nH]2)ccn1 : is its Ki strictly below 300 nM?
True

Record COc1cncc(-c2ccc3[nH]c(-c4cncc(F)c4)cc3c2)c1 : is its Ki strictly below 300 nM?
False

Record Clc1cc2[nH]c(-c3ccc(N4CCOCC4)nc3)cc2cc1-c1cncc2sccc12 : is its Ki strictly below 300 nM?
True
